Tested on: U-251
Assay summary: NCI tumour cell line growth inhibition, 48 h
Calls of active or inactive are those of the source. No stated cut-off is given here; in the data, active = GI50 up to about 1.1 µM and inactive = higher.
Measured quantity: GI50

### Prompt // Input: C=C1CCCC2OC(OC)CCC12 (stereo unspecified) . Output its GI50 only.
### Response > 100 µM (inactive)

### Prompt // Input: O=C(Nc1nc(C23CC4CC(CC(C4)C2)C3)cs1)c1cc2cc([N+](=O)[O-])ccc2oc1=O . Output its GI50 only.
### Response 43 µM (inactive)

---

Measured GI50, listed per entry for reference.
Test system: UO-31
Assay summary: NCI tumour cell line growth inhibition, 48 h
Activity calls are given as the source filed them. Cut-off read from the data, not from the text of the source: active = GI50 up to about 1.1 µM and inactive = higher.

Answered cases to consult:
CCN(CC)C(=O)c1cc([N+](=O)[O-])c(=O)n2c1[nH]c1ccccc12; > 100 µM (inactive)
Oc1ccc2ccccc2c1/N=N/c1cc(Cl)ccc1Cl; 21.3 µM (inactive)
NC(=O)c1csc(C2OC(CO)C(O)C2O)n1 (centres undefined); 53.2 µM (inactive)

### Prompt // Input: CCN(CCCOc1ccccc1)CCN(CC)CCCOc1ccccc1 . Output its GI50 only.
### Response 10.2 µM (inactive)

---

Test system: DMS-273
Assay summary: NCI tumour cell line growth inhibition, 48 h
Activity calls are given as the source filed them. No stated cut-off is given here; in the data, active = GI50 up to about 1.1 µM and inactive = higher.
Result category, one only: active, inactive

Cc1c2cnccc2c(C)c2c1c1ccccc1n2CCCN; active
NC(=O)c1csc(C2OC(CO)C(O)C2O)n1 (stereo unspecified); inactive
CSCC[C@@H](NC(=O)[C@H](CC(C)C)NC(=O)C(Cc1cnc[nH]1)NC(=O)CNC(=O)[C@@H](NC(=O)[C@H](C)NC(=O)[C@H](Cc1c[nH]c2ccccc12)NC(=O)[C@H](CCC(N)=O)NC(=O)[C@@H](N)CC(N)=O)C(C)C)C(N)=O (stereo partly specified); inactive

### Prompt Could you check what this test reported for COc1cc2c(cc1OC)C(Cl)C(c1ccc(Cl)cc1)=C2Cl (stereo unspecified) ?
### Response inactive

### Prompt Could you check what this test reported for C=CCNC(=S)N1c2ccccc2NC(=O)CC1C (stereo unspecified) ?
### Response inactive

### Prompt Could you check what this test reported for Cl[Si]1(Cl)Oc2ccccc2O[Si](Cl)(Cl)Oc2ccccc2O1 ?
### Response inactive

### Prompt Could you check what this test reported for CC(=O)Nc1ccc(C(=O)NN2C(=O)C(Cl)C2c2cc(Br)cc(Br)c2O)cc1 (stereo unspecified) ?
### Response inactive

### Prompt Could you check what this test reported for C(=N\OCc1ccccc1)/c1ncccc1C1OCCO1 ?
### Response inactive

### Prompt Could you check what this test reported for CCCCC#C[I+]c1ccccc1 ?
### Response inactive

### Prompt Could you check what this test reported for CN(/N=C/c1cccc2cccnc12)c1ccc([N+](=O)[O-])cc1 ?
### Response inactive

### Prompt Could you check what this test reported for O=C1CSC(Cc2nc3ccccc3[nH]2)=N1 ?
### Response inactive

---

Test system: 786-0
Assay summary: NCI tumour cell line growth inhibition, 48 h
The source made the active and inactive calls. Cut-off read from the data, not from the text of the source: active = GI50 up to about 1.1 µM and inactive = higher.
Result category, one only: active, inactive

Illustrative cases are given below, each with its answer.
COc1cc(OC)c2c(c1)C(=O)C(CC1(C)OCCCO1)=CC2=O; inactive
CCOC(=O)[C@@H]1ON2O[C@@H](OC3CCCCC3c3ccccc3)C[C@H]3OC(=O)[C@@H]1C32 (stereo not given in full); inactive
C=CCOC(=O)C1=C(CCC[C@@H](C)O[Si](C)(C)C(C)(C)C)N=C(N)N2[C@H](CCO)CC[C@@H]12; inactive
CC(=O)N(C(C)=O)n1c(Cc2ccc(C)cc2)nn(C(C)=O)c1=O; inactive
O=C(O)CCc1cccc2c1oc1c(CCC(=O)O)cccc12; inactive
Cc1nc(Nc2ccccc2)sc1C(=O)NNC(N)=O; inactive

### Prompt Could you check what this test reported for COC(=O)C1=C(C(=O)OC)SC2(S1)C(C(=O)OC)=C(C(=O)OC)Sc1c2ss/c1=N\c1ccc(Cl)cc1 ?
### Response active

### Prompt Could you check what this test reported for N#CCCSC1SC(=C2SC3=C(SCCS3)S2)SC1SCCC#N (stereo not given) ?
### Response inactive

### Prompt Could you check what this test reported for CCN(CCCOc1ccccc1)CCN(CC)CCCOc1ccccc1 ?
### Response inactive

### Prompt Could you check what this test reported for C[N+]1(C)C2Cc3ccccc3C1Cc1ccccc12 ?
### Response inactive

### Prompt Could you check what this test reported for Nc1nc(SCC(=O)O)nc(O)c1N ?
### Response inactive

### Prompt Could you check what this test reported for COc1cccc(NC(=O)CC(=O)n2nc(C)c(/N=N/c3ccccc3)c2C)c1 ?
### Response inactive

### Prompt Could you check what this test reported for COc1cccc2nc3ccccc3nc12 ?
### Response inactive

### Prompt Could you check what this test reported for C(=N\OCc1ccccc1)/c1ncccc1C1OCCO1 ?
### Response inactive

### Prompt Could you check what this test reported for CC(=O)Nc1ccccc1S(=O)(=O)c1c(-c2c(C)c(Cl)c(C)c(Cl)c2C)noc1C ?
### Response inactive

### Prompt Could you check what this test reported for COc1ccc(NC(=O)C2C(=O)N(c3ccc(OC)cc3)C(=O)/C2=N\N)cc1 (stereo not given) ?
### Response inactive

### Prompt Could you check what this test reported for CCNC(=O)O/N=C1/C=C2CC[C@@H]3C(CC[C@@]4(C)C3CC[C@@H]4OC(=O)NCC)[C@@]2(C)CC1 (stereo not given in full) ?
### Response inactive

### Prompt Could you check what this test reported for C=C1CCc2occ(C)c2C2C1C1=C(CC(C)C1=O)C1OC12C (stereo not given) ?
### Response inactive

### Prompt Could you check what this test reported for Cc1cc(S(=O)(=O)Nc2nnc3c(Cl)cc(C(F)(F)F)cn23)c(S)cc1Cl ?
### Response inactive

### Prompt Could you check what this test reported for O=C(CNc1cccc(Cl)c1)Nn1c(-c2ccccc2)nc2ccccc2c1=O ?
### Response inactive

### Prompt Could you check what this test reported for CC(=O)OC(C)c1cc2c(s1)C(=O)c1sccc1C2=O (stereo not given) ?
### Response inactive

### Prompt Could you check what this test reported for COc1ccc2nc3cccc([N+](=O)[O-])c3c(NCCO)c2c1 ?
### Response active

---

Measured GI50, listed per entry for reference.
System: U-251
Assay summary: NCI tumour cell line growth inhibition, 48 h
The source made the active and inactive calls. No stated cut-off is given here; in the data, active = GI50 up to about 1.1 µM and inactive = higher.

COC(=O)[C@]1(c2cc3ccccc3[nH]2)CC2CN(CC(=O)N(C)OC)C1C1OC(C)(C)OC21 (some centres not stated); 54.3 µM (inactive)
N#CC(C(=O)C(=O)Nc1ccc(Cl)c(Cl)c1)c1ccc(Cl)cc1 (configuration not stated); 40.8 µM (inactive)
O=c1oc2ccc(Cl)cc2cc1-c1cn2cc(Cl)ccc2n1; > 49.3 µM (inactive)
NCCCN(CCCCN(CCCN)C(=O)OCc1ccccc1)C(=O)OCc1ccccc1; > 100 µM (inactive)
Clc1ccc(SCCSCCCCCCCCCCSCCSc2ccc(Cl)cc2)cc1; > 100 µM (inactive)
CCN1C[C@]2(C)CC[C@H](OC)C34C5C[C@@H]6[C@@H](OC)C[C@@](OC)(C5[C@H]6OCc5ccccc5)C(C13)[C@H](OC(C)=O)[C@@H]42 (some centres not stated); > 100 µM (inactive)

### Prompt // Input: C=CCNC(=S)N1c2ccccc2NC(=O)CC1C (configuration not stated) . Output its GI50 only.
### Response > 100 µM (inactive)

---

Tested on: HOP-62
Assay summary: NCI tumour cell line growth inhibition, 48 h
Activity calls are given as the source filed them. Rule as the data show it: active = GI50 up to about 1.1 µM and inactive = higher.
Result category, one only: t = active, f = inactive

### Prompt Could you check what this test reported for O=c1cccccc1NCCCCCCCNc1cccccc1=O ?
### Response f

### Prompt Could you check what this test reported for CC(C)C(O)(C(=O)OCN1C(=O)C2C3C=CC(C2C1=O)C1C2C(=O)N(COC(=O)C(O)(C(C)C)C(C)O)C(=O)C2C31)C(C)O (stereo unspecified) ?
### Response f

### Prompt Could you check what this test reported for CC(=O)Nc1ccc2c3c(cc(O)c2c1)N(C(=O)CCCCCC(=O)N1CC(CCl)c2c1cc(O)c1cc(NC(C)=O)ccc21)CC3CCl (stereo unspecified) ?
### Response t

### Prompt Could you check what this test reported for CC[C@](C)(O)C(=O)O[C@H]1C(=O)O[C@@H]2C[C@H]3C(C)=CC(=O)[C@@H](O)[C@]3(C)[C@H]3[C@@]4(O)OC[C@]32[C@@H]1[C@@H](C)[C@H]4O ?
### Response t

### Prompt Could you check what this test reported for CCOC(=O)COc1cc(-c2ccccc2F)nc2cc3c(cc12)OCO3 ?
### Response f

### Prompt Could you check what this test reported for Cc1ccc(Oc2ccccc2N)cc1 ?
### Response f

### Prompt Could you check what this test reported for CC(=O)OCCOCNC(=S)N/N=C/c1ccc2ccccc2n1 ?
### Response f

### Prompt Could you check what this test reported for O=C1CC2(CCNCC2)C(=O)N1N1CCCCC1 ?
### Response f

### Prompt Could you check what this test reported for CCCCc1c2c(nc3c1CCCC3=O)CCCC2 ?
### Response f

### Prompt Could you check what this test reported for COC(=O)C1=C(C(=O)OC)SC2(S1)C(C(=O)OC)=C(C(=O)OC)Sc1c2ss/c1=N\c1ccc(Cl)cc1 ?
### Response f

### Prompt Could you check what this test reported for O=C(Nc1nc(C23CC4CC(CC(C4)C2)C3)cs1)c1cc2cc([N+](=O)[O-])ccc2oc1=O ?
### Response f
